Test: Probe fluorescence intensity change with UCB:BSA
Type: binding
Conditions: 1:1 UCB:BSA, 440 nm
quantity kind: ΔI/Io 1:1 UCB:BSA 440 nm
Answers are plain numbers.

Below are worked cases with known answers.
molecule	quantity kind	endpoint value
L1P14 D6: FABP probe, mutations 14M 72V 117W vs SEQ ID NO: 2 (protein, listed as Rattus norvegicus, PEPTIDE (1)...(131) wild-type rat intestinal fatty acid binding protein) AFDGTWKVDRNENMEKFMEKMGINVVKRKLGAHDNLKLTITQEGNKFTVKESSNFRNIDVVFELGVDFAYSVADGTELTGTWTMEGNKLVGKFKRVDNGKELIAVREISGNELIQTWTYEGVEAKRIFKKE	ΔI/Io 1:1 UCB:BSA 440 nm	−0.69
L5P16 H4: FABP probe, mutations 126K 73F 72A vs SEQ ID NO: 2 (protein, listed as Rattus norvegicus, PEPTIDE (1)...(131) wild-type rat intestinal fatty acid binding protein) AFDGTWKVDRNENYEKFMEKMGINVVKRKLGAHDNLKLTITQEGNKFTVKESSNFRNIDVVFELGVDFAYSAFDGTELTGTWTMEGNKLVGKFKRVDNGKELIAVREISGNELIQTYTYEGVEAKKIFKKE	ΔI/Io 1:1 UCB:BSA 440 nm	−0.69

Here is the next item to consider.
Entry L2P22 B1: FABP probe, mutations 18Y 31V 55V 72A vs SEQ ID NO: 2 (protein, listed as Rattus norvegicus, PEPTIDE (1)...(131) wild-type rat intestinal fatty acid binding protein) AFDGTWKVDRNENYEKFYEKMGINVVKRKLVAHDNLKLTITQEGNKFTVKESSNVRNIDVVFELGVDFAYSAADGTELTGTWTMEGNKLVGKFKRVDNGKELIAVREISGNELIQTYTYEGVEAKRIFKKE has what ΔI/Io 1:1 UCB:BSA 440 nm?
−0.70
